Overview of recorded IC50 for various molecules
target: N-type calcium channels (Cav2.2) (Rattus norvegicus (Rat)); assay: biochemical; assay type: binding; details: class symbol; rat cerebral cortex, [125I]ω-conotoxin GVIA 0.001 nM, 30 minutes at room temperature; read-out: IC50 Cav2.2
Numbered stars: 1 amine (or outer) side, 2 acyl side, 3 side chain; on linkers, the order of the positions; unused ones are H or OH. Square brackets hold non-standard residues; d marks the D form. Peptide text beside a SMILES is read from it. * marks the point of attachment. X3 = NC[C@H](OC(=O)C(F)(F)F)[C@H](N[*:1])C(=O)[*:2]; Phe(4-tBu) = CC(C)(C)c1ccc(C[C@H](N)C(=O)O)cc1; Phe(3-Cl) = N[C@@H](Cc1cccc(Cl)c1)C(=O)O; Phe(4-Cl) = N[C@@H](Cc1ccc(Cl)cc1)C(=O)O; Phe(3-F) = N[C@@H](Cc1cccc(F)c1)C(=O)O; Phe(4-I) = N[C@@H](Cc1ccc(I)cc1)C(=O)O; Dab(3S-OH) = NC[C@H](O)[C@H](N)C(=O)O; His(τ-Me) = Cn1cnc(C[C@H](N)C(=O)O)c1; His(π-Me) = Cn1cncc1C[C@H](N)C(=O)O; 2Pal = N[C@@H](Cc1ccccn1)C(=O)O; ΔZArg = N=C(N)NCC/C=C(\N)C(=O)O; aThr = C[C@H](O)[C@H](N)C(=O)O; dOrn = NCCC[C@@H](N)C(=O)O; Pra = C#CC[C@H](N)C(=O)O; NH(CH2)4NH2 = NCCCCN*

- MOLECULE: "C[C@H](NC(=O)[C@@H]1CCCN1C(=O)[C@@H](CCCN)NC(=O)CNC(=O)[C@@H](NC(=O)[C@@H](NC(=O)[C@@H](N)CCCCN)[C@@H](O)CN)[C@@H](O)CN)C(=O)N[C@@H](CCCCN)C(=O)N/C(=C\\CCNC(=N)N)C(=O)N[C@@H](CCCCN)C(=O)NCCCCN [22.4] (H-K[Dab(3S-OH)][Dab(3S-OH)]G[dOrn]PAK[ΔZArg]K-{NH(CH2)4NH2})"
  SYSTEM: "N-type calcium channels (Cav2.2) (Rattus norvegicus (Rat))"
  IC50: "< 30 nM"
- MOLECULE: "C[C@H](NC(=O)[C@@H](NC(=O)[C@@H](N)CCCCN)[C@@H](O)CN)C(=O)NCC(=O)N[C@H](CCCN)C(=O)N1CCC[C@H]1C(=O)N[C@@H](Cc1ccc(Cl)cc1)C(=O)N[C@@H](CCCCN)C(=O)N/C(=C\\CCNC(=N)N)C(=O)O [24.97] (H-K[Dab(3S-OH)]AG[dOrn]P[Phe(4-Cl)]K[ΔZArg]-OH)"
  SYSTEM: "N-type calcium channels (Cav2.2) (Rattus norvegicus (Rat))"
  IC50: "> 300 nM"
- MOLECULE: "C[C@H](NC(=O)[C@@H](NC(=O)[C@@H](N)CCCCN)[C@@H](O)CN)C(=O)NCC(=O)N[C@H](CCCN)C(=O)N1CCC[C@H]1C(=O)N[C@@H](Cc1cncn1C)C(=O)N[C@@H](CCCCN)C(=O)N/C(=C\\CCNC(=N)N)C(=O)N[C@@H](CCCCN)C(=O)NCCCCN [24.14] (H-K[Dab(3S-OH)]AG[dOrn]P[His(π-Me)]K[ΔZArg]K-{NH(CH2)4NH2})"
  SYSTEM: "N-type calcium channels (Cav2.2) (Rattus norvegicus (Rat))"
  IC50: "< 30 nM"
- MOLECULE: "CC(C)[C@H](NC(=O)[C@@H](NC(=O)[C@@H](N)CCCCN)[C@@H](O)CN)C(=O)NCC(=O)N[C@H](CCCN)C(=O)N1CCC[C@H]1C(=O)N[C@@H](Cc1cnc[nH]1)C(=O)N[C@@H](CCCCN)C(=O)N/C(=C\\CCNC(=N)N)C(=O)O [212.2] (H-K[Dab(3S-OH)]VG[dOrn]PHK[ΔZArg]-OH)"
  SYSTEM: "N-type calcium channels (Cav2.2) (Rattus norvegicus (Rat))"
  IC50: "> 300 nM"
- MOLECULE: "C[C@H](NC(=O)[C@@H](NC(=O)[C@@H](N)CCCCN)[C@@H](O)CN)C(=O)NCC(=O)N[C@H](CCCN)C(=O)N1CCC[C@H]1C(=O)N[C@@H](Cc1cccc(Cl)c1)C(=O)N[C@@H](CCCCN)C(=O)N/C(=C\\CCNC(=N)N)C(=O)O [24.88] (H-K[Dab(3S-OH)]AG[dOrn]P[Phe(3-Cl)]K[ΔZArg]-OH)"
  SYSTEM: "N-type calcium channels (Cav2.2) (Rattus norvegicus (Rat))"
  IC50: "> 300 nM"
- MOLECULE: "C#CC[C@H](NC(=O)[C@@H]1CCCN1C(=O)[C@@H](CCCN)NC(=O)CNC(=O)[C@H](C)NC(=O)[C@@H](NC(=O)[C@@H](N)CCCCN)[C@@H](O)CN)C(=O)N[C@@H](CCCCN)C(=O)N/C(=C\\CCNC(=N)N)C(=O)O [24.135] (H-K[Dab(3S-OH)]AG[dOrn]P[Pra]K[ΔZArg]-OH)"
  SYSTEM: "N-type calcium channels (Cav2.2) (Rattus norvegicus (Rat))"
  IC50: "> 300 nM"
- MOLECULE: "C[C@H](O)[C@H](NC(=O)[C@@H](NC(=O)[C@@H](N)CCCCN)[C@@H](O)CN)C(=O)NCC(=O)N[C@H](CCCN)C(=O)N1CCC[C@H]1C(=O)N[C@@H](Cc1cnc[nH]1)C(=O)N[C@@H](CCCCN)C(=O)N/C(=C\\CCNC(=N)N)C(=O)O [25.2] (H-K[Dab(3S-OH)][aThr]G[dOrn]PHK[ΔZArg]-OH)"
  SYSTEM: "N-type calcium channels (Cav2.2) (Rattus norvegicus (Rat))"
  IC50: "> 300 nM"
- MOLECULE: "C[C@H](NC(=O)[C@@H](NC(=O)[C@@H](N)CCCCN)[C@@H](O)CN)C(=O)NCC(=O)N[C@H](CCCN)C(=O)N1CCC[C@H]1C(=O)N[C@@H](Cc1cnc[nH]1)C(=O)N[C@@H](CCCCN)C(=O)N/C(=C\\CCNC(=N)N)C(=O)N[C@@H](CCCCN)C(=O)NCCCCN [24.1] (H-K[Dab(3S-OH)]AG[dOrn]PHK[ΔZArg]K-{NH(CH2)4NH2})"
  SYSTEM: "N-type calcium channels (Cav2.2) (Rattus norvegicus (Rat))"
  IC50: "< 30 nM"
- MOLECULE: "C[C@H](NC(=O)[C@@H](NC(=O)[C@@H](N)CCCCN)[C@@H](O)CN)C(=O)NCC(=O)N[C@H](CCCN)C(=O)N1CCC[C@H]1C(=O)N[C@@H](Cc1ccc(I)cc1)C(=O)N[C@@H](CCCCN)C(=O)N/C(=C\\CCNC(=N)N)C(=O)O [24.103] (H-K[Dab(3S-OH)]AG[dOrn]P[Phe(4-I)]K[ΔZArg]-OH)"
  SYSTEM: "N-type calcium channels (Cav2.2) (Rattus norvegicus (Rat))"
  IC50: "> 300 nM"
- MOLECULE: "C[C@H](NC(=O)[C@@H](NC(=O)[C@@H](N)CCCCN)[C@@H](O)CN)C(=O)NCC(=O)N[C@H](CCCN)C(=O)N1CCC[C@H]1C(=O)N[C@@H](Cc1cccc(F)c1)C(=O)N[C@@H](CCCCN)C(=O)N/C(=C\\CCNC(=N)N)C(=O)O [24.152] (H-K[Dab(3S-OH)]AG[dOrn]P[Phe(3-F)]K[ΔZArg]-OH)"
  SYSTEM: "N-type calcium channels (Cav2.2) (Rattus norvegicus (Rat))"
  IC50: "> 300 nM"
- MOLECULE: "C[C@H](NC(=O)[C@@H](NC(=O)[C@@H](N)CCCCN)[C@@H](O)CN)C(=O)NCC(=O)N[C@H](CCCN)C(=O)N1CCC[C@H]1C(=O)N[C@@H](Cc1ccccn1)C(=O)N[C@@H](CCCCN)C(=O)N/C(=C\\CCNC(=N)N)C(=O)N[C@@H](CCCCN)C(=O)NCCCCN [24.17] (H-K[Dab(3S-OH)]AG[dOrn]P[2Pal]K[ΔZArg]K-{NH(CH2)4NH2})"
  SYSTEM: "N-type calcium channels (Cav2.2) (Rattus norvegicus (Rat))"
  IC50: "< 30 nM"
- MOLECULE: "N=C(N)NCC/C=C(\\NC(=O)[C@H](CCCCN)NC(=O)[C@H](Cc1cnc[nH]1)NC(=O)[C@@H]1CCCN1C(=O)[C@@H](CCCN)NC(=O)CNC(=O)[C@@H](NC(=O)[C@@H](NC(=O)[C@@H](N)CCCCN)[C@@H](O)CN)[C@H](CN)OC(=O)C(F)(F)F)C(=O)N[C@@H](CCCCN)C(=O)NCCCCN [224.1] (H-K[Dab(3S-OH)][X3]G[dOrn]PHK[ΔZArg]K-{NH(CH2)4NH2})"
  SYSTEM: "N-type calcium channels (Cav2.2) (Rattus norvegicus (Rat))"
  IC50: "< 30 nM"
- MOLECULE: "C[C@H](NC(=O)[C@@H](NC(=O)[C@@H](N)CCCCN)[C@@H](O)CN)C(=O)NCC(=O)N[C@H](CCCN)C(=O)N1CCC[C@H]1C(=O)N[C@@H](Cc1cn(C)cn1)C(=O)N[C@@H](CCCCN)C(=O)N/C(=C\\CCNC(=N)N)C(=O)O [24.76] (H-K[Dab(3S-OH)]AG[dOrn]P[His(τ-Me)]K[ΔZArg]-OH)"
  SYSTEM: "N-type calcium channels (Cav2.2) (Rattus norvegicus (Rat))"
  IC50: "> 300 nM"
- MOLECULE: "C[C@H](NC(=O)[C@@H](NC(=O)[C@@H](N)CCCCN)[C@@H](O)CN)C(=O)NCC(=O)N[C@H](CCCN)C(=O)N1CCC[C@H]1C(=O)N[C@@H](Cc1ccc(C(C)(C)C)cc1)C(=O)N[C@@H](CCCCN)C(=O)N/C(=C\\CCNC(=N)N)C(=O)O [24.93] (H-K[Dab(3S-OH)]AG[dOrn]P[Phe(4-tBu)]K[ΔZArg]-OH)"
  SYSTEM: "N-type calcium channels (Cav2.2) (Rattus norvegicus (Rat))"
  IC50: "> 300 nM"

Reference for the values: patent US10626144B2
